# system.tested: GSPT1 (Homo sapiens, UniProt P15170)
# Construct: endogenous in cells; host or cells: MHH-CALL-4
# Sequence (P15170 whole entry): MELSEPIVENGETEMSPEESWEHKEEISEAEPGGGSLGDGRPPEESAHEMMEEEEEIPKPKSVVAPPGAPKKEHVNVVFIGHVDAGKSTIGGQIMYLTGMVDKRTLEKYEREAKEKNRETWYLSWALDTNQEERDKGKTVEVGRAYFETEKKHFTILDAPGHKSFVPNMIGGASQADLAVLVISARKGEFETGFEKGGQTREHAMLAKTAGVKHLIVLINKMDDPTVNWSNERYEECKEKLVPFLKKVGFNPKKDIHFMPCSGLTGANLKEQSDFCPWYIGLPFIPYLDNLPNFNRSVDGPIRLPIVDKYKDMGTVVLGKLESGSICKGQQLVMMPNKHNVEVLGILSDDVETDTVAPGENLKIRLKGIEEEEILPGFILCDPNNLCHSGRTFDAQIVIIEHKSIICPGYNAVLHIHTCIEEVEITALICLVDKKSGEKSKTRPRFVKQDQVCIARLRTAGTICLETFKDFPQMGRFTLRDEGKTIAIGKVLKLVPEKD
# method: Western blot assay, GSPT1 neosubstrate degradation
# Assay type: cell-based
# assay.setup: MHHCALL4; 100 nM, 24 h; MHH-CALL-4 cells; vehicle control = 100%
measured.parameter: remaining activity at 0.1 µM (%)
One number for each entry, in %.

compound	remaining activity at 0.1 µM [%]
CCCn1cc(-c2nc(Nc3ccc(C(=O)NCCCN4CCN(c5ccc(C6CCC(=O)NC6=O)cc5)CC4)cc3)nc3[nH]ccc23)cn1 (stereo not shown)	81
N#CC[C@H](C1CCCC1)n1cc(-c2nc(Nc3ccc(C(=O)NCCCN4CCN(c5ccc(C6CCC(=O)NC6=O)cc5)CC4)cc3)nc3[nH]ccc23)cn1 (stereo partly shown)	99
CCS(=O)(=O)N1CC(CC#N)(n2cc(-c3nc(Nc4ccc(C(=O)NCCCNC(=O)COc5cccc(C6CCC(=O)NC6=O)c5)cc4)nc4[nH]ccc34)cn2)C1 (stereo not shown)	89

Looking for the measured remaining activity at 0.1 µM of CCS(=O)(=O)N1CC(CC#N)(n2cc(-c3nc(Nc4ccc(C(=O)NCCCCNc5cccc(C6CCC(=O)NC6=O)c5)cc4)nc4[nH]ccc34)cn2)C1 (stereo not shown) , can you help?
124
